assay: protein stability index of a GFP-peptide fusion (GPS, HEK-293T) (PSI 1-6); higher = more stable; conditions: treatment: DMSO; c terminus: a fixed tail appended;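 note: 24-mer peptide tiles fused after GFP, lentivirally expressed, FACS-sorted into six equal bins by GFP/DsRed ratio, decoded by Illumina sequencing, PSI is the read-weighted mean bin number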
MEASUREMENT TYPE: protein stability index

{"columns": ["ITEM SEQUENCE", "VAL"],
 "data": [
  ["VLLMHMPAEQAFWCLVQICEKYLP [TBC1D10A]", 2.96],
  ["VSFVERILKSQKERQCALRVFKAR [FBXO39]", 2.35],
  ["TTVVVFVASMVLGECRQMSSSSQI [CLCN6]", 3],
  ["LRRRLEELQQELSLKDQERVAEVS [LRRC45]", 4.07],
  ["LFYILTFVGAIFNGLTLLILGVIG [RTN2]", 2.7],
  ["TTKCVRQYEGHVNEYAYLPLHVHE [DCAF4]", 2.92],
  ["SRKSSIPNNKEIPSHHPTDPVELR [PTPRD]", 4.83]
]}
